ASSAY METHOD TEXT: Toxicity liver stage against HepG2, at 10uM
Format: cell-based
Design: test concentration 10 uM, cell line HepG2-A16-CD81EGFP
TEST PARAMETERS: human, HepG2-A16-CD81EGFP cells; read-out: INHIBITION
We begin with a simple list: items and their reported cytotoxicity at 10 µM.

COMPOUND | cytotoxicity at 10 µM, %
CNC(=O)[C@H]1C[C@H]2OCC[C@H]2N(Cc2ccc(C)o2)C1 | 11.8
COCC1CN(S(=O)(=O)C2CC2)Cc2ncn(CC3CC3)c21 (stereo unspecified) | 9.03
O=C1NCCN1C1CCN(CCOc2ccccc2F)CC1 | -3.63
CN(C)CCn1ccnc1C1CCCN(c2nccc3ccccc23)C1 (stereo unspecified) | -7.55
CN(C)C(=O)COCC1CN(Cc2ccsc2)Cc2nccn2C1 (stereo unspecified) | -72.3
Cc1cnn(CCC(=O)NC2CCc3nc(C)cn3C2)c1 (stereo unspecified) | 0.132
CCc1cc(O)n2nc(C3CCCN3C(=O)c3ccccn3)cc2n1 (stereo unspecified) | -0.805
Cc1cccc(COC[C@@H]2CC[C@H]3[C@H](CCN3C(=O)CC3CC3)O2)n1 | -64.8
Cc1nn(C)c(Cl)c1C1CCCN1C(=O)c1ccc(N(C)C)nn1 (stereo unspecified) | -9.01
Cc1cccc(C2CCCN2C(=O)CN(C)S(C)(=O)=O)c1C (stereo unspecified) | 12.3
CC(C)SCCn1ccc2[nH]c(=O)c(C#N)cc2c1=O | 3.18

---

ASSAY METHOD TEXT: Toxicity liver stage against HepG2, at 10uM
Type: cell-based
Parameters: test concentration 10 uM, cell line HepG2-A16-CD81EGFP
TEST PARAMETERS: human, HepG2-A16-CD81EGFP cells; read-out: INHIBITION

MOLECULE | cytotoxicity at 10 µM
COCc1cnc2n1CCN(C(=O)c1cc3ccccc3o1)C2C (configuration not stated) | -105%
COc1ccc(CN(C)CC2CCCN2c2cccnn2)cc1F (configuration not stated) | 4.48%
O=C(c1cc(Cl)c2c(c1)OCO2)N1CCCC(n2ccnc2)C1 (configuration not stated) | -6.93%
CC(C)c1ccc(CN[C@@H]2COC[C@H]2c2ccc(F)cc2)cc1 | -7.52%
CN(C)CCN1CC(C(=O)NCc2ccc(C#N)cc2)CC1=O (configuration not stated) | -6.02%
CC(C)CN(CC(O)c1ccccc1)C(=O)NC(C)C (configuration not stated) | -3.96%
COCCN1CCC(c2cncc(N(C)C)n2)CC1 | -25.5%
Cc1cccn2cc(CNS(=O)(=O)N3CCOCC3)nc12 | -6.6%
Cc1cc(CC(=O)N2CCN(C)[C@@H]3CS(=O)(=O)C[C@@H]32)ccc1F | -3.89%
O=C(O)CSc1nnc(-c2ccn[nH]2)n1-c1ccccc1Cl | 0.276%
Cc1ncsc1C(=O)NCCNC(=O)c1cccs1 | -8.83%
CO[C@H]1CN(Cc2c(C)ccc3ncccc23)CC[C@H]1N | -146%

---

Recorded cytotoxicity at 10 µM for the following compounds
ASSAY METHOD TEXT: Toxicity liver stage against HepG2, at 10uM
Format: cell-based
Parameters: test concentration 10 uM, cell line HepG2-A16-CD81EGFP
TEST PARAMETERS: human, HepG2-A16-CD81EGFP cells; read-out: INHIBITION
MEASUREMENT KIND: cytotoxicity at 10 µM (%)

COMPOUND | VALUE
O=C(NC1CCC(O)CC1)c1ccc2nc(-c3ccc(F)cc3)cn2c1 (configuration not stated) | 1.31
CN(CCN1CCCCCC1)C(=O)c1c(O)cccc1O | -7.08
CCCn1nccc1NC(=O)CN1CCc2cnc(C(C)C)nc2C1 | -5.59
Cc1nc(C2CCCN(C(=O)c3ccoc3)C2)no1 (configuration not stated) | -13.1
O=C(NCc1nnc2n1CCCCC2)N(Cc1ccncc1)C1CC1 | 9.66
Cc1ccc(C(=O)N2Cc3c(CN4CCCCC4)nn(C)c3C2)o1 | -1.94
CN1CCN(CC(NCc2ccc(F)cc2)c2ccccc2)CC1 (configuration not stated) | -15.7
Cc1ccc(CN2CCC3(CCCN3S(C)(=O)=O)CC2)s1 | -113
COCCn1ccc2c(NC(=O)c3n[nH]c4c3CCCC4)cccc21 | 10.3
CN1CCOC(CNCc2coc(-c3ccccc3Cl)n2)C1 (configuration not stated) | -14.1
Cc1ccc(NC(=O)NCCc2cnn(C)c2)c(N(C)C)n1 | 13.4
O=C(Cc1c[nH]c2ccccc12)NCC1CCN(Cc2c[nH]cn2)C1 (configuration not stated) | 2.34
